Recorded values, source patent US20260242478A1.

target: T1, Anti-CD28 Fab (SEQ ID NOs: 696, 697); assay: phage binding ELISA; biotinylated anti-CD28 Fab on neutravidin plate, bound phage detected with anti-M13 HRP
T1 construct: In the phage ELISA the Fab was biotinylated and captured on neutravidin coated plates
T1 sequence (VH, as listed by the source, chain 1 of 2): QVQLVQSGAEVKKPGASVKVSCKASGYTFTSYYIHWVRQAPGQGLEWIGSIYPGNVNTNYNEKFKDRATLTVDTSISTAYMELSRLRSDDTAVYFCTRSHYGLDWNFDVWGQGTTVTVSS
T1 sequence (VL, as listed by the source, chain 2 of 2): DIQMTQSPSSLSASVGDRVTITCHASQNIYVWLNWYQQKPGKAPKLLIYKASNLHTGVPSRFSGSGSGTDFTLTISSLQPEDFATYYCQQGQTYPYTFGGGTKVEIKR
Where no end group is shown, it is not given here.
Let's look at some binders and their measured Anti-CD28 Fab (SEQ ID NOs: 696, 697) signal.
Metric name: Anti-CD28 Fab (SEQ ID NOs: 696, 697) signal

Binder	Measurement
TCAAGAVWGWPLCF (peptide, not shown: large carriers, Clonal phage of the Peptide-92 optimisation library, tested as crude phage supernatant) [Phage-1486]	1.73
TCSAGAMYPWPWCV (peptide, not shown: large carriers, cysteine pairing not given here; also: fused to phage pIII protein, pIII and linker not given here, Clonal phage of the Peptide-92 optimisation library, tested as crude phage supernatant) [Phage-1478]	1.75
TCAAGASFPWPWCL (peptide, not shown: large carriers, cysteine pairing not given here; also: fused to phage pIII protein, pIII and linker not given here, Clonal phage of the Peptide-92 optimisation library, tested as crude phage supernatant) [Phage-1476]	1.75
QCAAGAMWTWPACF (peptide, not shown: large carriers, Clonal phage of the Peptide-92 optimisation library, tested as crude phage supernatant) [Phage-1483]	1.73
GCAAGFHYPWPLCL (peptide, not shown: large carriers, cysteine pairing not given here; also: displayed as fusion to phage pIII, pIII and linker not given here, Clonal phage of the Peptide-92 optimisation library, tested as crude phage supernatant) [Phage-1480]	1.74
